- system.tested: T1, Hexa-His-tagged PpiC M57A (E. coli)
- T1 chain: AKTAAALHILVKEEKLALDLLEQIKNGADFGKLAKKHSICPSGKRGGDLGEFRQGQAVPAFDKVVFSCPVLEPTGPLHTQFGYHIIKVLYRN
- protocol.notes: ITC
pKd: −log10 of the molar value.

{"columns": ["binder", "pKd"],
 "data": [
  ["RATFVVDPQGI (peptide from AhpC (alkyl hydroperoxide reductase subunit C), E. coli; also called AhpC peptide) [AhpC-derived peptide]", 4.16]
]}

FYI, the data here is from paper PMC7353009.
